target: Ima1p (Saccharomyces cerevisiae); test: Kinetic parameters for selected substrates; format: biochemical; conditions: mean ± SEM
Sequence (P53051 whole entry): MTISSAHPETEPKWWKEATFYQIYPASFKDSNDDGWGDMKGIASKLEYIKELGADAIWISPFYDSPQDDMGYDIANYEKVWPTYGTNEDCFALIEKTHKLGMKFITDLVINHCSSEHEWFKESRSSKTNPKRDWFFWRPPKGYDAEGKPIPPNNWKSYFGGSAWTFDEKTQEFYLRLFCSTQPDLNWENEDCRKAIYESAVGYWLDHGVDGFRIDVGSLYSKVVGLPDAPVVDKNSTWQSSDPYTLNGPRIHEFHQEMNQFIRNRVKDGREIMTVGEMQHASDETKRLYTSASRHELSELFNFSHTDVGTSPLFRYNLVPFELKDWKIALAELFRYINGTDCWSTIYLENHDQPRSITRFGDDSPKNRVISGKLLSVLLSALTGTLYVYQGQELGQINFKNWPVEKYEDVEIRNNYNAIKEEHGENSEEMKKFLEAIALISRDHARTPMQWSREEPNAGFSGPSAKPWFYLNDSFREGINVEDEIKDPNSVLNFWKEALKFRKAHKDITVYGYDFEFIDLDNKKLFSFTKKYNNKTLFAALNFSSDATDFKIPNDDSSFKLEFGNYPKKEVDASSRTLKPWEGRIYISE
quantity: kcat
Output should be the measured figure followed by the unit it is expressed in.

# annotated cases, reported kcat shown
COC1OC(CO)C(O)C(O)C1O (stereo not drawn) [α-MG, α-Methylglucopyranoside] ... 84 ± 8 s⁻¹
OC[C@H]1O[C@@](CO)(O[C@H]2O[C@H](CO)[C@@H](O)[C@H](O)[C@H]2O)[C@@H](O)[C@@H]1O ... 51 ± 4 s⁻¹

Now for another entry.
Entry OC[C@H]1O[C@H](OC[C@H]2O[C@H](O)[C@H](O)[C@@H](O)[C@@H]2O)[C@H](O)[C@@H](O)[C@@H]1O has what kcat? 103 ± 12 s⁻¹

* * *

target: UniProtKB P0CW40; experiment: Kinetic parameters for selected substrates; assay type: biochemical; conditions: mean ± SEM
Sequence (P0CW40 whole entry): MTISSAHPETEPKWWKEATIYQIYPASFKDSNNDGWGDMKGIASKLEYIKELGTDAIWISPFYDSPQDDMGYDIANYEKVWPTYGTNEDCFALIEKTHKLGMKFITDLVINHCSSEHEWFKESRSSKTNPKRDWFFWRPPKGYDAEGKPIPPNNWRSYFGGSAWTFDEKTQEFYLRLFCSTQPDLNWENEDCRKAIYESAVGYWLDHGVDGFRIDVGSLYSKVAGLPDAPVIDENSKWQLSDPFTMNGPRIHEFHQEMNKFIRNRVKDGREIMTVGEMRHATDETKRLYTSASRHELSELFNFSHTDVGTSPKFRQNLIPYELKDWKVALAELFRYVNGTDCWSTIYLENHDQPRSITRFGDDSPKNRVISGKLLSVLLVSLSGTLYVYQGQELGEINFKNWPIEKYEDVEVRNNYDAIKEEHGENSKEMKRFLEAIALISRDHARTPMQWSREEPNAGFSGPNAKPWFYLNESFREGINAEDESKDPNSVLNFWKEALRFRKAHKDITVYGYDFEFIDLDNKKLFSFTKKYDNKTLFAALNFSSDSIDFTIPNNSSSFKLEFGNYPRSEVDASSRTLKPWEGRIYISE
quantity: kcat (s⁻¹)
Answers are plain numbers, in s⁻¹.

Consider the worked cases shown below.
OC[C@H]1O[C@H](OC[C@H]2OC(O)(CO)[C@@H](O)[C@@H]2O)[C@H](O)[C@@H](O)[C@@H]1O (stereo partly drawn) [Palatinose, O-α-D-Glucosyl-(1→6)-D-fructose] ... 6.0
OC[C@H]1O[C@H](OC[C@H]2O[C@H](O[C@H]3[C@H](O)[C@@H](O)C(O)O[C@@H]3CO)[C@H](O)[C@@H](O)[C@@H]2O)[C@H](O)[C@@H](O)[C@@H]1O (stereo partly drawn) [Panose] ... 0
OC[C@H]1O[C@H](OC[C@H]2O[C@H](O)[C@H](O)[C@@H](O)[C@@H]2O)[C@H](O)[C@@H](O)[C@@H]1O [Isomaltose, O-α-D-Glucosyl-(1→6)-α-D-glucose] ... 15
OC[C@H]1O[C@@](CO)(O[C@H]2O[C@H](CO)[C@@H](O)[C@H](O)[C@H]2O)[C@@H](O)[C@@H]1O [Sucrose, O-α-D-Glucosyl-(1→2)-β-D-fructose] ... 25
COC1OC(CO)C(O)C(O)C1O (stereo not drawn) [α-MG, α-Methylglucopyranoside] ... 14

Record request: kcat value, item OC[C@H]1O[C@H](OC[C@H]2O[C@H](OC[C@H]3OC(O)[C@H](O)[C@@H](O)[C@@H]3O)[C@H](O)[C@@H](O)[C@@H]2O)[C@H](O)[C@@H](O)[C@@H]1O (stereo partly drawn) [Isomaltotriose] 0

* * *

target: UniProt:Q08295; assay: Substrate specificity of purified isomaltase; format: biochemical; settings: 100 mM substrate (pNPG 5 mM), pH 7, 30 °C
Sequence (Q08295 whole entry): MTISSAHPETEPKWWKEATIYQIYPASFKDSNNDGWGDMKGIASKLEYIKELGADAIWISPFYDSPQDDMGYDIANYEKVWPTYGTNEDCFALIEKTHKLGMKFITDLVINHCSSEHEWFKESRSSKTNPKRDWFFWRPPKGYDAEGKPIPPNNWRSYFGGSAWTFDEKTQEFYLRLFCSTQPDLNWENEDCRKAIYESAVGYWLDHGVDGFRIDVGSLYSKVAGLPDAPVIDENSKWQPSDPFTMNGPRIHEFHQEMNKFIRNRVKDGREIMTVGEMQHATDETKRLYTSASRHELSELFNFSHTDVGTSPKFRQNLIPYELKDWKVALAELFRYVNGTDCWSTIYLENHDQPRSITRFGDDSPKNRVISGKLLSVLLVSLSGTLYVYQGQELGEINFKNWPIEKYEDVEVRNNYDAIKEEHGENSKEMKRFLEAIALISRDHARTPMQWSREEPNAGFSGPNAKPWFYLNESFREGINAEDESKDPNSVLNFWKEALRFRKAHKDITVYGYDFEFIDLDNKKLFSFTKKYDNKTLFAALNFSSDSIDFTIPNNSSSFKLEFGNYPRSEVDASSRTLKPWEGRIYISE
Field: relative activity, velocity on isomaltose set to 100. Provide a value for each of the molecules that follow.
Give bare numbers, in %.

OC[C@H]1O[C@H](O[C@H]2[C@H](O)[C@@H](O)[C@@H](O[C@H]3[C@H](O)[C@@H](O)C(O)O[C@@H]3CO)O[C@@H]2CO)[C@H](O)[C@@H](O)[C@@H]1O (stereo partly shown) ... 6

Would you mind listing relative activity, velocity on isomaltose set to 100 for each of the following molecules?
1. OC[C@H]1O[C@@](CO)(O[C@H]2O[C@H](CO)[C@@H](O)[C@H](O)[C@H]2O)[C@@H](O)[C@@H]1O
2. OC[C@H]1O[C@H](OC[C@H]2O[C@H](O[C@H]3[C@H](O)[C@@H](O)C(O)O[C@@H]3CO)[C@H](O)[C@@H](O)[C@@H]2O)[C@H](O)[C@@H](O)[C@@H]1O (stereo partly shown)
3. OC[C@H]1O[C@H](O[C@@H]2[C@@H](O)[C@@H](O)O[C@H](CO)[C@H]2O)[C@H](O)[C@@H](O)[C@@H]1O
4. O=C(CO)[C@@H](O[C@H]1O[C@H](CO)[C@@H](O)[C@H](O)[C@H]1O)[C@H](O)[C@H](O)CO
5. OC[C@H]1O[C@H](OC[C@H]2O[C@H](O)[C@H](O)[C@@H](O)[C@@H]2O)[C@H](O)[C@@H](O)[C@@H]1O
6. OC[C@H]1O[C@H](OC[C@H]2O[C@H](OC[C@H]3OC(O)[C@H](O)[C@@H](O)[C@@H]3O)[C@H](O)[C@@H](O)[C@@H]2O)[C@H](O)[C@@H](O)[C@@H]1O (stereo partly shown)
7. OC[C@H]1O[C@H](O[C@@H]2[C@@H](O)[C@H](O)[C@@H](CO)O[C@@H]2O)[C@H](O)[C@@H](O)[C@@H]1O

36
5
13
6
100
14
13

Answer for every listed entry: what is its relative activity, velocity on isomaltose set to 100? The entries follow.
1. OC[C@H]1O[C@H](O[C@@H]2COC(O)(CO)[C@@H](O)[C@@H]2O)[C@H](O)[C@@H](O)[C@@H]1O (stereo partly shown)
2. O=[N+]([O-])c1ccc(O[C@H]2O[C@H](CO)[C@@H](O)[C@H](O)[C@H]2O)cc1 [α-pNPG, 4-Nitrophenyl α-D-glucopyranoside]
3. OC[C@H]1O[C@H](OC[C@H]2OC(O)(CO)[C@@H](O)[C@@H]2O)[C@H](O)[C@@H](O)[C@@H]1O (stereo partly shown)
4. COC1OC(CO)C(O)C(O)C1O (stereo not drawn) [α-MG, α-Methylglucopyranoside]

[16, 14, 137, 102]

May I ask what relative activity, velocity on isomaltose set to 100 has been recorded for OC[C@H]1O[C@H](O[C@@H]2[C@@H](CO)OC(O)(CO)[C@H]2O)[C@H](O)[C@@H](O)[C@@H]1O (stereo partly shown) ? 1

These measurements were taken from paper PMC3953731.
